These measurements were taken from patent US20240109865A1.

Listed next: entries and their corresponding Kd.
# Target entity: FGFR3 (V555M) (Homo sapiens (Human), UniProt P22607, V555M)
# Sequence (P22607 23-806 V555M): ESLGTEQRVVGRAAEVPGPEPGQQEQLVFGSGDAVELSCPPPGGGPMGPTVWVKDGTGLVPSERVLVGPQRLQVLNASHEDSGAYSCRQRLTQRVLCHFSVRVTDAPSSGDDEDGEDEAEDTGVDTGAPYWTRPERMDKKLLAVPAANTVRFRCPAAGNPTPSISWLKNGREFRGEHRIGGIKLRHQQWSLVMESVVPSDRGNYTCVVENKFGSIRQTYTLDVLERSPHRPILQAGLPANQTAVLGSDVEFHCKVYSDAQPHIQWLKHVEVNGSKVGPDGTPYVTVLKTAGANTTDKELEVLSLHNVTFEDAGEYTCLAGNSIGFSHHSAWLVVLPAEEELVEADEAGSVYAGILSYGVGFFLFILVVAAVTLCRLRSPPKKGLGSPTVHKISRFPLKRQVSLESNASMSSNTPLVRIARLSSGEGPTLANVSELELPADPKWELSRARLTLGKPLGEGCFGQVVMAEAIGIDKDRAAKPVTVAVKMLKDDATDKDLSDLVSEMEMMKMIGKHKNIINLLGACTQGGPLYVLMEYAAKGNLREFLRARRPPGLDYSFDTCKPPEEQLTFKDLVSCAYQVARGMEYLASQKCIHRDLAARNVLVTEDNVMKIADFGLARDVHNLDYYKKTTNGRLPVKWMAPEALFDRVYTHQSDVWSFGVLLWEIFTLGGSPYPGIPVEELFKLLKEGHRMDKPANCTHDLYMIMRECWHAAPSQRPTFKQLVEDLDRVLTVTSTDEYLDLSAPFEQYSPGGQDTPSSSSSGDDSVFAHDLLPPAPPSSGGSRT
# Procedure details: Kinase assay, binding constants (Kd), kinase-tagged T7 phage, qPCR
# Condition notes: V555M mutant
# Procedure: Kinase-tagged T7 phage strains were prepared in an E. coli host derived from the BL21 strain. E. coli were grown to log-phase and infected with T7 phage and incubated with shaking at 32° C. until lysis. The lysates were centrifuged and filtered to remove cell debris. […] Test compounds were prepared as 111λ stocks in 10000 DMS0. Kds were determined using an 11-point 3-fold compound dilution series with three DMSO control points. […] The kinase concentration in the eluates was measured by qPCR. […]

Incoming: I am curious: what Kd value has been reported for COC(=O)N1CCC2(CC1)CN(c1ccc(-c3n[nH]c4ccc(O[C@H](C)c5c(Cl)cncc5Cl)cc34)cn1)C2 ?
Outgoing: 1 to 20 nM

***
Incoming: # Kd lookup, item Cc1cnnc(C)c1[C@@H](C)Oc1ccc2[nH]nc(-c3ccc(N4CC5(CCCN(C(=O)OC(C)C)C5)C4)nc3)c2c1
Outgoing: 1 to 20 nM

Incoming: Then this molecule: COc1cc2[nH]nc(-c3cnc(N4CC5(COC5)C4)c(C#N)c3)c2cc1O[C@H](C)c1c(C)cnnc1C [Example 324]
Outgoing: 1 to 20 nM

====

# Target entity: FGFR1 (Homo sapiens (Human))
# Sequence (P11362 22-822): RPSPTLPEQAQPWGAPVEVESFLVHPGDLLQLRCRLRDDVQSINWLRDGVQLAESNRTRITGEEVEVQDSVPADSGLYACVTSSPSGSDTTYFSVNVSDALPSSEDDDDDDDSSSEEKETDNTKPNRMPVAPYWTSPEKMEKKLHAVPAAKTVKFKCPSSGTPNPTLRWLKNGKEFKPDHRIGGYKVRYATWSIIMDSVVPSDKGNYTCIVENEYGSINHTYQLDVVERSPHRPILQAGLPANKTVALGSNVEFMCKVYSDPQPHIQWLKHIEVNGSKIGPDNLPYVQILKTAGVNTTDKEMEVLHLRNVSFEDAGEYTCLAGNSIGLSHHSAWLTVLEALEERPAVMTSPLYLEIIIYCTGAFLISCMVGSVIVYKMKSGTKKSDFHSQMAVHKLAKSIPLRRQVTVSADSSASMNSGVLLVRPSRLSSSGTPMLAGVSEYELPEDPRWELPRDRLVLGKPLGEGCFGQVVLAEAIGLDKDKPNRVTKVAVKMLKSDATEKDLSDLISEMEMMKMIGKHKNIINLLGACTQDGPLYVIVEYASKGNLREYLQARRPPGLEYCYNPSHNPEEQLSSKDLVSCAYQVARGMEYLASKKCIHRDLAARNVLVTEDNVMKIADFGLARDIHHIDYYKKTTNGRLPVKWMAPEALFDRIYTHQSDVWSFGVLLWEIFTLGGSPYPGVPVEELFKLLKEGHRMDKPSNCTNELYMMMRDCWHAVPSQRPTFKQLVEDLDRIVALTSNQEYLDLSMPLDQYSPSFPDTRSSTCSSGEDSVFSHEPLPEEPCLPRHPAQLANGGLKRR
# Procedure details: Kinase assay, binding constants (Kd), kinase-tagged T7 phage, qPCR
Measurement kind: Kd

Recorded Kd, per entry:
Incoming: Quick check: Kd of CC(C)N1CC[C@@H](n2cc(-c3n[nH]c4ccc(O[C@H](C)c5c(Cl)cncc5Cl)cc34)cn2)C1 ?
Outgoing: 1 to 20 nM

Incoming: Likewise for C[C@@H](Oc1ccc2[nH]nc(-c3ccc(N4CCN5CCC[C@H]5C4)nc3)c2c1)c1c(Cl)cncc1Cl ?
Outgoing: 1 to 20 nM

Incoming: Try this molecule next: C[C@@H](Oc1ccc2[nH]nc(-c3ccc(N4CCN(C(N)=O)C5(CC5)C4)nc3)c2c1)c1c(Cl)cncc1Cl
Outgoing: 1 to 20 nM

Incoming: Also C[C@@H](Oc1ccc2[nH]nc(-c3cnc(N4CCC5(CCC(=O)N5C)CC4)c(F)c3)c2c1)c1c(Cl)cncc1Cl , if possible.
Outgoing: 1 to 20 nM

Incoming: C[C@@H](Oc1ccc2[nH]nc(-c3cnc(N4CCC5(CCC(=O)N5C)CC4)nc3)c2c1)c1c(Cl)cncc1Cl ?
Outgoing: 1 to 20 nM

Incoming: Entry to check: C[C@@H](Oc1ccc2[nH]nc(-c3ccc(N4CC5(C4)CN(S(C)(=O)=O)C5)nc3)c2c1)c1c(Cl)cccc1Cl
Outgoing: 100 to 300 nM

Incoming: Would you kindly repeat that for COc1cc2[nH]nc(-c3cnc(N4CC[C@@H](C(C)(C)O)C4)c(C#N)c3)c2cc1O[C@H](C)c1c(C)cnnc1C ?
Outgoing: 20 to 100 nM

Incoming: Let us now turn to C[C@@H](Oc1ccc2[nH]nc(-c3ccc(N4CC5(C4)CS(=O)(=O)C5)nc3)c2c1)c1c(Cl)cncc1Cl
Outgoing: 1 to 20 nM

Incoming: Cool, now C[C@@H](Oc1ccc2[nH]nc(-c3ccc(N4CCC5(CCCO5)CC4)nc3)c2c1)c1c(Cl)cncc1Cl
Outgoing: 20 to 100 nM

Incoming: Please do the same for C[C@@H](Oc1ccc2[nH]nc(-c3cnn(C4CCN(C5CCC5)CC4)c3)c2c1)c1cc(F)cc(F)c1 as well.
Outgoing: 20 to 100 nM

Further cases:
Incoming: Give its Kd value. Item: C[C@@H](Oc1ccc2[nH]nc(-c3ccc(N4CC(C(F)F)C4)nc3)c2c1)c1c(Cl)cncc1Cl
Outgoing: 20 to 100 nM
